assay_target: G/T mismatch-specific thymine DNA glycosylase (Homo sapiens) (UniProt Q13569);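 further: human TDG cleavage of quenched duplex DNA oligonucleotides coupled to APE1, strand release read as fluorescence at 594 nm, inhibition of TDG activity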
Sequence (Q13569 whole entry): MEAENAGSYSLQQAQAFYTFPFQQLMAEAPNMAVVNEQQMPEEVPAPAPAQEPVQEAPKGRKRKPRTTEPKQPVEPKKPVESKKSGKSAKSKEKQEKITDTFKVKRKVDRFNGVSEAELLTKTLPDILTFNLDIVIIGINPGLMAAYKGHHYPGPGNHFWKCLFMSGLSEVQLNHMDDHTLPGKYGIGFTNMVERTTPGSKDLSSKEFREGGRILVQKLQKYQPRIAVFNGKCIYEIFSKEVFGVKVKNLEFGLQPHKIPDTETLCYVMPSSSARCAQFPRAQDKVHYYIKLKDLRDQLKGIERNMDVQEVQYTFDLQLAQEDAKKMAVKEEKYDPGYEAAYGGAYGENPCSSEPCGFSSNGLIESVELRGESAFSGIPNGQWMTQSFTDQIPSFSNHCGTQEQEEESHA
test_settings: Compound Concentration 10.0 uM, Hit No
Description: Inhibition of TDG by quantifying inhibition of TDG-mediated cleavage and dissociation of quenched duplex DNA oligonucleotides, measured as fluorescence at 594 nm. To generate a functional strand incision and increase turn-over this assay is coupled to APE1.
I'd be grateful if you could share measured inhibition for these entries.
Numbers only, in %.

compound: COc1ccc(-c2ccc3cc(C(=O)O)ccc3c2)cc1C12CC3CC(CC(C3)C1)C2
inhibition, %: 39.5

Batch: inhibition for all items listed.
1. CCC[C@@H]1CNCc2c1[nH]c(=O)c(C#N)c2N1CCC2(CC1)CC2
2. COc1cc(C(=O)O)ncc1C#Cc1ccccc1NS(=O)(=O)c1cccc2c(N(C)C)ccnc12
3. CC(C)NCC(O)COc1cccc2ccccc12 (stereo not drawn)
4. CO[C@H]1CC[C@H](CNc2ccc(S(=O)(=O)NC(=O)c3ccc(N4CCN(CC5=C(c6ccc(Cl)cc6)CC(C)(C)CC5)CC4)cc3Oc3cnc4[nH]ccc4c3)cc2[N+](=O)[O-])CC1
5. COC1(C[S@@+]([O-])c2ccccc2)CCN(CCc2c[nH]c3ccc(F)cc23)CC1

1. 98.8
2. 46.3
3. 5.22
4. 47.9
5. 6.29

Batch lookup, inhibition per entry.
1. Cc1cc(OCCC(C)(C)O)cc(C)c1-c1ccc(F)c2c1CC[C@H]2Oc1ccc2c(c1)OC[C@H]2CC(=O)O
2. COc1cc(C(C)C)c(Oc2cnc(NC(CO)CO)nc2N)cc1I
3. CC(=O)[C@H]1CC[C@H]2[C@@H]3CC[C@H]4C[C@H](O)CC[C@]4(C)[C@H]3CC[C@]12C

1. 61.7
2. -1.74
3. 19.2

Values compiled from ChEMBL document CHEMBL5665443.
